Hello, the source for this data is patent US12187728B2, in case you need it.

Molecular target: Human MTHFD2 (Homo sapiens)
Construct: residues 36-350 in Uniport ID P13995; His6 (N); made in house; host or cells: E. coli
Sequence (P13995 36-350): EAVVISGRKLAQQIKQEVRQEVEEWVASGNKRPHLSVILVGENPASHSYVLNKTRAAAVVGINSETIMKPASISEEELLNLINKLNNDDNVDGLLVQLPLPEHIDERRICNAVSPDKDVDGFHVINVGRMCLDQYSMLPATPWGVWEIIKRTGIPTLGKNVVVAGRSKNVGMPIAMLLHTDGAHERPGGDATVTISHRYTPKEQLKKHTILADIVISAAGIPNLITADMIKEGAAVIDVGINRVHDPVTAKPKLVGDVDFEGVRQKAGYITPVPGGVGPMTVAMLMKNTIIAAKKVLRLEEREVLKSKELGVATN
Assay: MTHFD2 Activity Assay (dehydrogenase activity, diaphorase/resazurin coupled fluorescence)
Type: biochemical
Settings: inhibitory activity (IC50 and/or binding constant); 0.2 nM MTHFD2, 11 concentrations
pIC50: −log10 of the molar value.
Reported pIC50 values for the following compounds.

Known results for compounds:
Cn1c(Nc2ccnc(C3CC(CO)C3)c2)nc2c1c(=O)n(Cc1ccc(Cl)c(Cl)c1)c(=O)n2C (stereo not shown) ... 6.00 to 8.00
Cn1c(C(N)=O)nc2c1c(=O)n(Cc1ccc(Cl)c(Cl)c1)c(=O)n2C ... 5.30 to 6.00
Cn1c(Nc2ccc(C(=O)O)cc2)nc2c1c(=O)n(Cc1cc3c(Cl)cccc3[nH]1)c(=O)n2C ... 6.00 to 8.00
Cn1c(Nc2cccc(CCC(N)=O)n2)nc2c1c(=O)n(Cc1cc3c(Cl)cccc3[nH]1)c(=O)n2C ... 6.00 to 8.00

**Q:** # get_value(readout='pIC50', item= Cc1ccc2[nH]c(Cn3c(=O)c4c(ncn4C)n(C)c3=O)cc2c1 )
**A:** 5.30 to 6.00

**Q:** Please answer likewise for Cn1c(N[C@H]2CC[C@@H](N)CC2)nc2c1c(=O)n(Cc1ccc(Cl)c(Cl)c1)c(=O)n2C
**A:** 5.30 to 6.00

**Q:** Please answer likewise for Cn1c(C2CCNC2)nc2c1c(=O)n(Cc1[nH]c3cccc(Cl)c3c1Cl)c(=O)n2C (stereo not shown)
**A:** 6.00 to 8.00

**Q:** Please answer likewise for Cn1c(Nc2ccnc(CN)n2)nc2c1c(=O)n(Cc1cc3c(Cl)cccc3[nH]1)c(=O)n2C
**A:** 6.00 to 8.00
